Test system: IL-6 mRNA
Assay: IL-6 mRNA in LPS-activated primary murine macrophages
Assay type: cell-based, mouse
Experimental conditions: 300 nM, −IFN, average of 3 treatments
In the oligonucleotide strings, read from the 5' end, every base follows the letter of its sugar. An asterisk marks phosphorothioate; unmarked linkages are phosphodiester. Other units and linkages are bracketed, terminal groups are in braces. A string of capitals states the bases alone. e = 2'-O-(2-methoxyethyl) (MOE); [5mC] = 5-methylcytosine; d = 2'-deoxy (DNA)
Labelling field: enter 1 (yes) if recorded IL-6 mRNA expression, % UTC is less than 200 % UTC. Enter 0 (no) if it equals or exceeds that cut-off.

Determine if 327941 (antisense eA*eA*e[5mC]*e[5mC]*e[5mC]*eA*e[5mC]*e[5mC]*eG*eA*e[5mC]*eA*eG*e[5mC]*eA*eA*eT*eG*eA*eA*eT*eG*eT*eT) [compound 327941] shows IL-6 mRNA expression, % UTC strictly lower than 200 % UTC.
0 (no)

Determine if 129690 (antisense TTAGAATACGTCGCGTTATG; sugars from the 5' end e5 d10 e5, all phosphorothioate, methylation of C not given here) [compound 129690] shows IL-6 mRNA expression, % UTC strictly lower than 200 % UTC.
1 (yes)

Determine if 342683 (antisense CCTTCCCTGAAGGTTCCTCCTT; scrambled control, further chemistry not given here) [compound 342683] shows IL-6 mRNA expression, % UTC strictly lower than 200 % UTC.
1 (yes)

Determine if 289606 (antisense CCUUCCCUGAAGGUUCCUCC; all 2'-MOE, all C 5-methyl, all phosphorothioate, T or U not given here) [compound 289606] shows IL-6 mRNA expression, % UTC strictly lower than 200 % UTC.
1 (yes)

Determine if 327921 (antisense e[5mC]*eT*eT*e[5mC]*e[5mC]*eA*eG*eT*e[5mC]*eG*eG*eG*eG*eA*eT*eG*eT*eT*eT*eA*e[5mC]*eA) [compound 327921] shows IL-6 mRNA expression, % UTC strictly lower than 200 % UTC.
0 (no)

Determine if 229927 (antisense e[5mC]*e[5mC]*eA*e[5mC]*eA*dT*dT*dG*dA*dG*dT*dT*dT*d[5mC]*dT*eT*eT*eA*eA*eG) [compound 229927] shows IL-6 mRNA expression, % UTC strictly lower than 200 % UTC.
1 (yes)

The reported numbers originate from patent US8178506B2.
